compounds and their reported AICD vs CQ (3 μM)
- Test system: AICD
- protocol-text: AICD by Western blot in SY5Y-APP695WT cells
- Assay type: cell-based, human
- experimental-parameters: AICD increase compared to chloroquine ([AICD]compound/[AICD]CQ) at 3 μM; mean of at least three experiments
readout: AICD vs CQ (3 μM)

compound	readout	quantitative-readout
CN(C)Cc1ccccc1-c1ccc(NCCCN2CCCCC2)c(OCCN2CCCCC2)c1 [Compound 30]	AICD vs CQ (3 μM)	3.6
CN(C)CCCNc1ccc(-n2ccc(CN3CCN(C)CC3)c2)cc1OCCN1CCCCC1 [Compound 58]	AICD vs CQ (3 μM)	1.8
c1cc(-c2ccc(NCCCN3CCCCC3)c(OCCN3CCCCC3)c2)ccc1CN1CCCCC1 [Compound 24]	AICD vs CQ (3 μM)	2.5
CN(C)Cc1ccccc1-c1ccc(NCCCN2CCCCC2)c(OCCC2CCCCC2)c1 [Compound 31]	AICD vs CQ (3 μM)	0.1
CN(C)Cc1ccccc1-c1ccc(NCCCN2CCCCC2)c(OCCCN2CCCCC2)c1 [Compound 32]	AICD vs CQ (3 μM)	5.1
c1cn(-c2ccc(NCCCN3CCCCC3)c(OCCN3CCCCC3)c2)cc1CN1CCCCC1 [Compound 52]	AICD vs CQ (3 μM)	1.2
c1cn(-c2ccc(NCCCN3CCCCC3)c(OCCN3CCCCC3)c2)cc1CN1CCOCC1 [Compound 53]	AICD vs CQ (3 μM)	3.3
c1ccc(-c2ccc(NCCCN3CCCCC3)c(OCCN3CCCCC3)c2)c(CN2CCOCC2)c1 [Compound 28]	AICD vs CQ (3 μM)	1.7
CN(C)CCCNc1ccc(-n2ccc(CN3CCOCC3)c2)cc1OCCN1CCCCC1 [Compound 57]	AICD vs CQ (3 μM)	2.6
CN(C)Cc1ccccc1-c1ccc(NCCN2CCCCC2)c(OCCCN2CCCCC2)c1 [Compound 34]	AICD vs CQ (3 μM)	3.4
c1ccc(-c2ccc(NCCCN3CCCCC3)c(OCCN3CCCCC3)c2)cc1 [Compound 37]	AICD vs CQ (3 μM)	2.1
